Just for reference, paper PMC7318034 is where these values come from.

Experiment: Part A single-ascending-dose plasma PK in healthy subjects
Format: in vivo, human
Settings: human, plasma, iv, 0.25 g, part A cohort 1, single 0.25 g, 3-h i.v. infusion, mean ± SD, n=6; read-out: t1/2 (converted)
Method: This was a 4-part, double-blind, placebo-controlled study (15 cohorts) of DUR administered as a 3-h i.v. infusion (except for cohort 4, in which a 2-h i.v. infusion was evaluated) (see Table S5 in the supplemental material). […] AUC was calculated using the log-linear trapezoidal rule. […]
Measured endpoint: half-life (h)
Your answer should be a plain number; it is taken to be in h.

Query half-life for CC1=C[C@@H]2CN(C(=O)N2OS(=O)(=O)O)[C@@H]1C(N)=O 1.5
